TARGET_SYSTEM: ~100 representative kinases (Homo sapiens, UniProt P49841)
Construct: Recombinant protein kinase domains with a concentration of 2 μM
Sequence (P49841 whole entry, the tested form may be a part): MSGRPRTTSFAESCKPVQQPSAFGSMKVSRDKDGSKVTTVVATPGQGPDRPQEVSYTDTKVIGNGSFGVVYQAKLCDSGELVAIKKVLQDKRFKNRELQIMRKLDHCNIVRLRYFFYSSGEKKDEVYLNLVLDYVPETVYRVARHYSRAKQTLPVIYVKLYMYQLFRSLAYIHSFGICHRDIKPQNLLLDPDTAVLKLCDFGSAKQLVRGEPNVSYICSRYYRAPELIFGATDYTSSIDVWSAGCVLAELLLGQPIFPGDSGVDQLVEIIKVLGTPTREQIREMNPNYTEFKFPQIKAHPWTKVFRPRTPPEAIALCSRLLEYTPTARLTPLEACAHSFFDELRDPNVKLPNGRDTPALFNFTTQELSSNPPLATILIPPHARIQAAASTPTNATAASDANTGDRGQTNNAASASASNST
TEST_PROTOCOL: DSF 100 kinase selectivity screen;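 further: compound tested at 20 µM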
Format: binding
CONDITION_DETAILS: protein GSK3B; average of three replicates
# dTm per entry
VALUE_TYPE: dTm (K)

molecule=CCNc1nc(Nc2cc(F)c(C(=O)N3CCOCC3)cc2OC)ncc1C(F)(F)F value_type=dTm reported=3.70
molecule=Cc1ccc(C(=O)Nc2ccc(CN3CCN(C)CC3)c(C(F)(F)F)c2)cc1C#Cc1c[nH]c2ncnc(N3CCOCC3)c12 value_type=dTm reported=1.72
molecule=O=C(Nc1ccc(Cl)cc1)C1(C(=O)Nc2cccc(-c3c[nH]c4ncnc(N5CCOCC5)c34)c2)CC1 value_type=dTm reported=7.55
molecule=Cc1cc(NC(=O)C2(C(=O)Nc3ccc(F)cc3)CC2)cc(-c2c[nH]c3ncnc(N4CCOCC4)c23)c1 value_type=dTm reported=3.83
molecule=O=C(Nc1cc(F)cc(Br)c1)C1(C(=O)Nc2cccc(-c3c[nH]c4ncnc(N5CCOCC5)c34)c2)CC1 value_type=dTm reported=3.16
molecule="CNC(=O)c1cc(Oc2ccc(NC(=O)Nc3cc(C(C)(C)C)nn3-c3ccc4ncccc4c3)c(F)c2)ccn1 [Rebastinib, reference compound]" value_type=dTm reported=11.89
molecule=O=C(Nc1cccc(-c2c[nH]c3ncnc(N4CCOCC4)c23)c1)C1(C(=O)Nc2ccc(F)c(F)c2)CC1 value_type=dTm reported=7.13
molecule=Cc1ccc(NC(=O)C2(C(=O)Nc3cccc(-c4c[nH]c5ncnc(N6CCOCC6)c45)c3)CC2)cc1 value_type=dTm reported=4.34
molecule="COc1cc2c(Oc3ccc(NC(=O)C4(C(=O)Nc5ccc(F)cc5)CC4)cc3F)ccnc2cc1OCCCN1CCOCC1 [Foretinib, reference compound]" value_type=dTm reported=3.46
molecule=Cn1cc(-c2c[nH]c3ncnc(N4CCOCC4)c23)cc1C#N value_type=dTm reported=5.50
molecule=CC(C)(C)c1cc(NC(=O)Nc2cccc(-c3c[nH]c4ncnc(N5CCOCC5)c34)c2)n(-c2ccc3ncccc3c2)n1 value_type=dTm reported=13.25
molecule=O=C(Nc1cccc(-c2c[nH]c3ncnc(N4CCOCC4)c23)c1)C1(C(=O)Nc2cccc3c2CCC3)CC1 value_type=dTm reported=8.12
molecule=COc1ccc(NC(=O)C2(C(=O)Nc3cccc(-c4c[nH]c5ncnc(N6CCOCC6)c45)c3)CC2)cc1 value_type=dTm reported=2.09
molecule=CCSc1nc(NC)c2c(-c3cccc(NC(=O)Nc4cc(C(C)(C)C)nn4-c4ccc(C)cc4)c3)c[nH]c2n1 value_type=dTm reported=-0.49
molecule=O=C(Nc1cccc(-c2c[nH]c3ncnc(N4CCOCC4)c23)c1)C1(C(=O)Nc2ccc(F)cc2F)CC1 value_type=dTm reported=3.90

Values compiled from paper PMC12136037.
